# assay.system: 18S ribosomal subunit RNA target
# run.description: Mass spectrometry based binding assay (FTICR), 18S
# experimental.context: Example 108
reported.metric: Kd (nM)
Field: numeric (nM). Do not append units.

Inquiry: Identify the measured Kd of NCC1OC(OC2C(CO)OC(OC3C(O)C(N)CC(N)C3OC3OC(CNN)C(O)C(O)C3N)C2O)C(N)C(O)C1O (stereo not shown) [Compound 15i] for 18S ribosomal subunit RNA target.
Reply text: 1700

Inquiry: Identify the measured Kd of NCCCCNCC1OC(OC2C(N)CC(N)C(O)C2OC2OC(CO)C(OC3OC(CN)C(O)C(O)C3N)C2O)C(N)C(O)C1O (stereo not shown) [Compound 15f] for 18S ribosomal subunit RNA target.
Reply text: 6000

Inquiry: Identify the measured Kd of CC(C)(C)OC(=O)NNCC1OC(OC2C(N)CC(N)C(O)C2OC2OC(CO)C(OC3OC(CN)C(O)C(O)C3N)C2O)C(N)C(O)C1O (stereo not shown) [Compound 15d] for 18S ribosomal subunit RNA target.
Reply text: 1400

Inquiry: Identify the measured Kd of NCCCNCC1OC(OC2C(N)CC(N)C(O)C2OC2OC(CO)C(OC3OC(CN)C(O)C(O)C3N)C2O)C(N)C(O)C1O (stereo not shown) [Compound 15b] for 18S ribosomal subunit RNA target.
Reply text: 1400
